- experimental-details: Stability of Compound (A2), hepatic S9 fraction, mouse
- Type: in vitro ADME
- test-parameters: −NADPH, read-out: Hepatic S9 (+/−NADPH) t½ (converted)
Positions of bridges follow the written chain, without caps; N, C: chain ends. Non-standard residues stand in square brackets, D forms with d. Residues, ends and D or L forms follow the SMILES beside them. Leu(3R-O(AcLeu(3R-OH))) = CC(=O)N[C@H](C(=O)O[C@H](C(C)C)[C@H](N)C(=O)O)[C@H](O)C(C)C; NMeT = CN[C@H](C(=O)O)[C@@H](C)O; dPhLac = O=C(O)[C@H](O)Cc1ccccc1; NMeA = CN[C@@H](C)C(=O)O; NMeDha = C=C(NC)C(=O)O
quantity-kind: half-life

compound="C=C1C(=O)N[C@@H](C)C(=O)N(C)[C@@H](C)C(=O)N[C@@H]([C@H](OC(=O)[C@@H](NC(C)=O)[C@H](O)C(C)C)C(C)C)C(=O)N(C)[C@@H]([C@@H](C)OC)C(=O)O[C@H](C)[C@H](NC(C)=O)C(=O)O[C@H](Cc2ccccc2)C(=O)N1C [Compound (A2)] (Ac-T[dPhLac][NMeDha]A[NMeA][Leu(3R-O(AcLeu(3R-OH)))][NMeT](Me); ester 1-C)" reported_result="> 2 h"

----------
- experimental-details: Stability of Compound (A2), hepatic S9 fraction, mouse
- Format: in vitro ADME
- test-parameters: +NADPH, read-out: Hepatic S9 (+/−NADPH) t½ (converted)
Positions of bridges follow the written chain, without caps; N, C: chain ends. Non-standard residues stand in square brackets, D forms with d. Residues, ends and D or L forms follow the SMILES beside them. Leu(3R-O(AcLeu(3R-OH))) = CC(=O)N[C@H](C(=O)O[C@H](C(C)C)[C@H](N)C(=O)O)[C@H](O)C(C)C; NMeT = CN[C@H](C(=O)O)[C@@H](C)O; dPhLac = O=C(O)[C@H](O)Cc1ccccc1; NMeA = CN[C@@H](C)C(=O)O; NMeDha = C=C(NC)C(=O)O
quantity-kind: half-life (h)

compound="C=C1C(=O)N[C@@H](C)C(=O)N(C)[C@@H](C)C(=O)N[C@@H]([C@H](OC(=O)[C@@H](NC(C)=O)[C@H](O)C(C)C)C(C)C)C(=O)N(C)[C@@H]([C@@H](C)OC)C(=O)O[C@H](C)[C@H](NC(C)=O)C(=O)O[C@H](Cc2ccccc2)C(=O)N1C [Compound (A2)] (Ac-T[dPhLac][NMeDha]A[NMeA][Leu(3R-O(AcLeu(3R-OH)))][NMeT](Me); ester 1-C)" quantity_kind=half-life reported_result=1.9

----------
- experimental-details: PK of Compound (A2) in female balb/c mice
- Type: in vivo
- test-parameters: mouse, in vivo, 1 mg/kg iv, read-out: CL
Positions of bridges follow the written chain, without caps; N, C: chain ends. Non-standard residues stand in square brackets, D forms with d. Residues, ends and D or L forms follow the SMILES beside them. Leu(3R-O(AcLeu(3R-OH))) = CC(=O)N[C@H](C(=O)O[C@H](C(C)C)[C@H](N)C(=O)O)[C@H](O)C(C)C; NMeT = CN[C@H](C(=O)O)[C@@H](C)O; dPhLac = O=C(O)[C@H](O)Cc1ccccc1; NMeA = CN[C@@H](C)C(=O)O; NMeDha = C=C(NC)C(=O)O
quantity-kind: clearance (mL/min/kg)

compound="C=C1C(=O)N[C@@H](C)C(=O)N(C)[C@@H](C)C(=O)N[C@@H]([C@H](OC(=O)[C@@H](NC(C)=O)[C@H](O)C(C)C)C(C)C)C(=O)N(C)[C@@H]([C@@H](C)OC)C(=O)O[C@H](C)[C@H](NC(C)=O)C(=O)O[C@H](Cc2ccccc2)C(=O)N1C [Compound (A2)] (Ac-T[dPhLac][NMeDha]A[NMeA][Leu(3R-O(AcLeu(3R-OH)))][NMeT](Me); ester 1-C)" endpoint_unit=mL/min/kg reported_result=175
